target: SHP2 (Homo sapiens); construct: endogenous in cells; host or cells: MV 411; test: SHP2 degradation in MV 411 cells by Western blot (median degradation concentration); format: cell-based; conditions: 24 hours with compound, SHP-2 antibody Western blot, concentration of the median degradation from exposure gray scale
Sequence (Q06124 whole entry): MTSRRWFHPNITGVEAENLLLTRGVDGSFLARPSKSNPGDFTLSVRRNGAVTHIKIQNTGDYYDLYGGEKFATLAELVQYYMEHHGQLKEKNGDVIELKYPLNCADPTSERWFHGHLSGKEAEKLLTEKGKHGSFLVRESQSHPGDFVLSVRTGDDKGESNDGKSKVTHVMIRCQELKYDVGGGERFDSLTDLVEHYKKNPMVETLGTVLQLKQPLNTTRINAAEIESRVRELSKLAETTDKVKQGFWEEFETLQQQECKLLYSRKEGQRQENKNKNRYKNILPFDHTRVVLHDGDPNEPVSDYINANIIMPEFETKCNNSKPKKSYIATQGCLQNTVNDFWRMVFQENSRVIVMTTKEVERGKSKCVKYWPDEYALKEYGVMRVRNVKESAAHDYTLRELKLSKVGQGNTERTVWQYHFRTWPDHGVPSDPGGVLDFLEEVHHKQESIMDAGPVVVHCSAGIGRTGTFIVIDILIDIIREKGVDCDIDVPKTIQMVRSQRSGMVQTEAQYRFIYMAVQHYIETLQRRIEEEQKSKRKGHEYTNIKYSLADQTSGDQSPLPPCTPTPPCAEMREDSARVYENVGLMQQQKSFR
Attribute Measured: DC50

Recorded DC50 (compound CCOc1cc2oc(-c3ccc(OCCOCCOCCOCCOc4ccc5c(c4)C(=O)N(C4CCC(=O)NC4=O)C5=O)cc3Cl)cc(=O)c2cc1-c1cc(C(C)=O)cc(C(N)=O)c1 (centres unmarked) ): 25 nM

Lookup result for CCOc1cc2oc(-c3ccc(OCCOCCOCCOCCOc4cccc5c4C(=O)N(C4CCC(=O)NC4=O)C5=O)cc3Cl)cc(=O)c2cc1-c1cc(C(N)=O)cc(N(C)C)c1 (centres unmarked) ; measured DC50: > 250 nM

DC50 reading for CCOc1cc2oc(-c3ccc(NCCOCCOCCOCCOc4cccc5c4C(=O)N(C4CCC(=O)NC4=O)C5=O)cc3Cl)cc(=O)c2cc1-c1cccc(C(N)=O)c1 (centres unmarked) : 250 nM

The reported value for CCOc1cc2oc(-c3ccc(OCCOCCOCCOCCOc4cccc5c4C(=O)N(C4CCC(=O)NC4=O)C5=O)cc3Cl)cc(=O)c2cc1-c1cc(NC(=O)NC)cc(C(N)=O)c1 (centres unmarked) in terms of DC50 is > 250 nM

Please fill in: DC50 reported for CCOc1cc2oc(-c3ccc(NCCOCCOCCOCCOc4cccc5c4C(=O)N(C4CCC(=O)NC4=O)C5=O)cc3Cl)cc(=O)c2cc1-c1cc(F)cc(C=O)c1 (centres unmarked) = 250 nM

The compound CCOc1cc2oc(-c3ccc(OCCOCCOCCOCCOc4cccc5c4C(=O)N(C4CCC(=O)NC4=O)C5=O)cc3Cl)cc(=O)c2cc1-c1cc(O)cc(C(N)=O)c1 (centres unmarked) showed DC50 equal to > 250 nM

Note to self: DC50 recorded for CCOc1cc2oc(-c3ccc(OCCOCCOCCOCCOc4cccc5c4C(=O)N(C4CCC(=O)NC4=O)C5=O)cc3Cl)cc(=O)c2cc1-c1cc(N)cc(C(N)=O)c1 (centres unmarked) was 850 nM

DC50 reported for this compound CCOc1cc2oc(-c3ccc(OCCOCCOCCOCCOc4cccc5c4C(=O)N(C4CCC(=O)NC4=O)C5=O)cc3Cl)cc(=O)c2cc1-c1cc(NS(=O)(=O)c2ccccc2)cc(C(N)=O)c1 (centres unmarked) : > 250 nM

get_value(item= CCOc1cc2oc(-c3ccc(NCCOCCOCCOCCOc4cccc5c4C(=O)N(C4CCC(=O)NC4=O)C5=O)cc3Cl)cc(=O)c2cc1CN1CCC[C@@H]1CO (some centres unmarked) , readout=DC50) returns 5 nM

Entry CCOc1cc2oc(-c3ccc(OCCOCCOCCOCCOc4cccc5c4C(=O)N(C4CCC(=O)NC4=O)C5=O)cc3Cl)cc(=O)c2cc1-c1cc(NC)cc(C(N)=O)c1 (centres unmarked) ; DC50 = > 250 nM

For CCOc1cc2oc(-c3ccc(NCCOCCOCCOCCOc4ccc5c(c4)C(=O)N(C4CCC(=O)NC4=O)C5=O)cc3Cl)cc(=O)c2cc1-c1cccc(C(C)=O)c1 (centres unmarked) [Compound 86] the compound record lists DC50 as 50 nM
